molecular target: Neurogenic locus notch homolog protein 3 (Homo sapiens); test: NOTCH3 binders on small-molecule microarray, primary screen, biochemical, 635/667 nm fluorescence (AID 1096); conditions: NOTCH3 binding, 635 nm fluorescence, higher = more signal
Reported composite z-score values for the following molecules.
// no unit string in output, number only

For orientation, consider the following solved cases.
>>> reading("COC(=O)C(CC#Cc1ccc2c(c1)[C@]1(C(=O)N2)[C@H](C(=O)O)[C@H]2C(=O)O[C@H](c3ccccc3)[C@H](c3ccccc3)N2[C@@H]1c1ccc(OCCO)cc1)C(=O)OC")
0.983
>>> reading("C=CCNC(=O)[C@@H]1[C@H]2C(=O)O[C@H](c3ccccc3)[C@H](c3ccccc3)N2[C@H](c2ccc(O)cc2)[C@@]12C(=O)Nc1ccc(C#Cc3ccc(OC)cc3)cc12")
1.14
>>> reading("COc1ccc([Si](C)(C)[C@@H]2[C@@H](CC(=O)N3CCC[C@H]3CO)O[C@]3(C(=O)N(Cc4ccc(N5CCC5=O)cc4)c4ccccc43)[C@H]2C)cc1")
0.708

Report its composite z-score with Neurogenic locus notch homolog protein 3 (Homo sapiens) as the test system: CCCCCCC#C[Si](O[C@H](c1ccccc1)c1cn(Cc2ccccc2)nn1)(C(C)C)C(C)C
0.6

Report its composite z-score with Neurogenic locus notch homolog protein 3 (Homo sapiens) as the test system: O=C1c2ccccc2[C@@]2(Cc3ccccc3N(CC(F)(F)F)C2=O)[C@H](c2ccc(CO)cc2)N1Cc1ccccc1C(F)(F)F
-1.18

Report its composite z-score with Neurogenic locus notch homolog protein 3 (Homo sapiens) as the test system: CCCNC(=O)[C@@H]1c2ccccc2C(=O)N(Cc2cc(C(F)(F)F)cc(C(F)(F)F)c2)[C@H]1c1ccc(CO)cc1
0.523

Report its composite z-score with Neurogenic locus notch homolog protein 3 (Homo sapiens) as the test system: NCCCCCNC(=O)[C@H]1C[C@H]2C(=O)NCC(=O)N2[C@H]1c1ccc(O)cc1
0.906

* * *

experiment: E. coli acrAB mutant growth effects, primary screen, E. coli filamentation inducers, strain DRC39, OD650, 24 h (AID 1178); conditions: higher = more signal, called active from +8 up or from −8 down;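 note: growth measured as culture turbidity by optical density at 650 nm; test concentration not given here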
Readout Type: z-score
// no unit string in output, number only

For orientation, consider the following solved cases.
>>> reading("O=c1n(-c2ccccc2)c(=O)n2n1CC(COc1ccccc1)=C1[C@@H](CCc3ccccc3)OB(O)C[C@@H]12")
2.4
>>> reading("C=C(COC)C(=O)CC[C@H](OC(=O)c1cccnc1)c1cccc(OCCO)c1")
1.09
>>> reading("O=C(NCc1ccccc1)[C@@H]1c2ccccc2C(=O)N(Cc2ccccc2Cl)[C@H]1c1ccc(CO)cc1")
0.392

API: the following record is the query input.
In one line, give reported z-score of the entry C=CCC(OC(C)=O)[C@@H]1[C@@H](N(Cc2ccc(-c3cccc(C(F)(F)F)c3)o2)C(=O)c2ccc(-c3ccccc3)cc2)c2cc(OCCCO)ccc2N1C(=O)Cc1ccc(OC)cc1 (some centres not stated) .
1.98

* * *

test: CREB reporter modulators without forskolin, primary screen, cell-based, PC12, CRE-LacZ reporter, unstimulated (AID 1145); settings: no forskolin, luminescence, 4.5 h, higher = more signal, called active from +8 up or from −8 down
Reported z-score values for the following molecules.
// no unit string in output, number only

For orientation, consider the following solved cases.
>>> reading("CC(C)(C)OC(=O)CC[C@@]1(C(=O)NCc2ccccc2)N=C(c2ccc(OCCCO)cc2)O[C@@H]1c1ccccc1CN=[N+]=[N-]")
1.46
>>> reading("C=CCNC(=O)[C@@H]1[C@H]2C(=O)O[C@H](c3ccccc3)[C@H](c3ccccc3)N2[C@H](c2ccc(O)cc2)[C@@]12C(=O)Nc1ccc(C#Cc3ccc(OC)cc3)cc12")
-0.0784

API: the following record is the query input.
In one line, give reported z-score of the entry CC(=O)NCCCC[C@@H]1NC(=O)[C@@H]2C[C@H](C(=O)O)[C@H](c3cccc(OCCO)c3)N2C1=O .
0.151

Data provenance: PubChem BioAssay
